# TARGET OR TEST SYSTEM: High affinity 3',5'-cyclic-AMP phosphodiesterase 7A (Homo sapiens, UniProt Q13946)
# Sequence (Q13946 whole entry): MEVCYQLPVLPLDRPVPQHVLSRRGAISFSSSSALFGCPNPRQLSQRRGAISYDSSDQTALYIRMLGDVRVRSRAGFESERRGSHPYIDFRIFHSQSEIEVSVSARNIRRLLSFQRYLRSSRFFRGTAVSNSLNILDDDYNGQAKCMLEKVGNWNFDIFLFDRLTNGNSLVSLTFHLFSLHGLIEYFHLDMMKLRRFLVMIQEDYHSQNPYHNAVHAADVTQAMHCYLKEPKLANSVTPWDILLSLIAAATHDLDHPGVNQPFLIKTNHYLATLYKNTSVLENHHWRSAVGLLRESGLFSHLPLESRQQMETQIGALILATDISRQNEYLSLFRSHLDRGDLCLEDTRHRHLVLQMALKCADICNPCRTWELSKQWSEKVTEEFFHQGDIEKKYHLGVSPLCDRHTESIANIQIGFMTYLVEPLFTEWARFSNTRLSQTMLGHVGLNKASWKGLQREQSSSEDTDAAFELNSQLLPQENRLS
# PROTOCOL SUMMARY: Inhibition of human recombinant PDE7A1-mediated [3H]cAMP hydrolysis at 10 uM after 20 mins by scintillation proximity assay
# Lookup of reported inhibition keyed by entry
PARAMETER: inhibition (%)

>>> df
                            smiles_notation  endpoint_result
0  CCOc1cc(C(=O)OCc2ccc(-c3ccc([N+](=O)[O-])cc3C)o2)cc(OCC)c1OCC               29
1  COc1cc(C(=O)OCc2ccc(-c3ccc([N+](=O)[O-])cc3)o2)cc(OC)c1OC             49.5
2  COc1cc(COC(=O)c2ccc(-c3ccc([N+](=O)[O-])cc3)o2)cc(OC)c1OC               48
3  COc1cc(COC(=O)c2ccc(-c3ccccc3C(F)(F)F)o2)cc(OC)c1OC             54.9
4  CCOc1cc(C(=O)OCc2ccc(-c3ccccc3)o2)cc(OCC)c1OCC             48.8
5  CCOc1cc(C(=O)OCc2ccc(-c3ccc(Cl)cc3Cl)o2)cc(OCC)c1OCC              3.7
6  COc1cc(COC(=O)c2ccc(-c3ccc(C)cc3[N+](=O)[O-])o2)cc(OC)c1OC             28.8

====

# Lookup of reported inhibition keyed by entry
# TARGET OR TEST SYSTEM: cGMP-inhibited 3',5'-cyclic phosphodiesterase 3A (Homo sapiens)
# Sequence (Q14432 whole entry): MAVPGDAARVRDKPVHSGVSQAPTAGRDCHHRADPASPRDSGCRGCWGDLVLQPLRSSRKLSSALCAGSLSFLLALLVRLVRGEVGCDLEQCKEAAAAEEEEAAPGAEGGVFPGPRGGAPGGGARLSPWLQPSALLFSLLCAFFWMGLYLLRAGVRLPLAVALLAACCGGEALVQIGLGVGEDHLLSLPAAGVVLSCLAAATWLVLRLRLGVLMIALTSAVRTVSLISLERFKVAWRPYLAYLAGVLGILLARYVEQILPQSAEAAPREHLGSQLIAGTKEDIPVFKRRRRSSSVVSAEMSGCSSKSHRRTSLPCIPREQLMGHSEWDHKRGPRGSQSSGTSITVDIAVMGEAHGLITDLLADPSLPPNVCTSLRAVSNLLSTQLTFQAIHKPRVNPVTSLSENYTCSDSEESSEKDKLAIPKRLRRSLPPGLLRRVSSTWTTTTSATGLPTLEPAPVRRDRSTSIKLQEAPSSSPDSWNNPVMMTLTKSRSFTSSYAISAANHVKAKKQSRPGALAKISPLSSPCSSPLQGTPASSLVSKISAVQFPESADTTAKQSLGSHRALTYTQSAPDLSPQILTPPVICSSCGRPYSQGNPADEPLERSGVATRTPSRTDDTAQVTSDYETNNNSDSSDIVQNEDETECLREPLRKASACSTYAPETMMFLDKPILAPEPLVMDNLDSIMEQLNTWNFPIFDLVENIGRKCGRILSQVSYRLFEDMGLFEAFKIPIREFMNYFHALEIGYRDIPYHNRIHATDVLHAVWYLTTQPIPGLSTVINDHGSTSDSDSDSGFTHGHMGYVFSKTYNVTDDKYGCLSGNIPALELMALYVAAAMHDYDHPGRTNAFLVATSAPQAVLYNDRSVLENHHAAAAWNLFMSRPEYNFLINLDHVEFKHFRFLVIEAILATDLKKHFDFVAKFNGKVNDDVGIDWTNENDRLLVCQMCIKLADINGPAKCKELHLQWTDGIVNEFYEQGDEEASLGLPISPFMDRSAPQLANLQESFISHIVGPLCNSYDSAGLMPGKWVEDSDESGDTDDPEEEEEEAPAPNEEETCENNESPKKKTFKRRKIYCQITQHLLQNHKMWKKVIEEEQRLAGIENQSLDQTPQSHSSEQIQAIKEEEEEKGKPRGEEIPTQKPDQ
# PROTOCOL SUMMARY: Inhibition of human recombinant PDE3A-mediated [3H]cAMP hydrolysis at 10 uM after 20 mins by scintillation proximity assay
PARAMETER: inhibition (%)

>>> print(df.to_string())
                            smiles_notation   parameter  result_units  endpoint_result
0  COc1cc(COC(=O)c2ccc(-c3ccc(Cl)cc3[N+](=O)[O-])o2)cc(OC)c1OC  inhibition             %               11
1  COc1cc(COC(=O)c2ccc(-c3ccccc3)o2)cc(OC)c1OC  inhibition             %             46.1
2  COc1cc(COC(=O)c2ccc(-c3ccc([N+](=O)[O-])cc3)o2)cc(OC)c1OC  inhibition             %             57.1
3  CCOc1cc(C(=O)OCc2ccc(-c3ccccc3)o2)cc(OCC)c1OCC  inhibition             %                3
4  COc1cc(CNC(=O)c2ccc(-c3ccc(C)cc3[N+](=O)[O-])o2)cc(OC)c1OC  inhibition             %             49.6
5  COc1cc(COC(=O)c2ccc(-c3ccccc3C(F)(F)F)o2)cc(OC)c1OC  inhibition             %             74.9

====

# TARGET OR TEST SYSTEM: High affinity 3',5'-cyclic-AMP phosphodiesterase 7A (Homo sapiens)
# PROTOCOL SUMMARY: Inhibition of human recombinant PDE7A1-mediated [3H]cAMP hydrolysis after 20 mins by scintillation proximity assay
PARAMETER: log10 IC50 (log10 of the value in µM)

>>> df
                            smiles_notation                     target_or_test_system   parameter  endpoint_result
0  CCOc1cc(C(=O)OCc2ccc(-c3ccccc3)o2)cc(OCC)c1OCC  High affinity 3',5'-cyclic-AMP phosphodiesterase 7A (Homo sapiens)  log10 IC50             1.09
1     Cc1ccc([N+](=O)[O-])cc1S(=O)(=O)N(C)C  High affinity 3',5'-cyclic-AMP phosphodiesterase 7A (Homo sapiens)  log10 IC50            -1.05
2  COc1cc(C(=O)OCc2ccc(-c3ccc([N+](=O)[O-])cc3)o2)cc(OC)c1OC  High affinity 3',5'-cyclic-AMP phosphodiesterase 7A (Homo sapiens)  log10 IC50             1.52
3  COc1cc(COC(=O)c2ccc(-c3ccc([N+](=O)[O-])cc3)o2)cc(OC)c1OC  High affinity 3',5'-cyclic-AMP phosphodiesterase 7A (Homo sapiens)  log10 IC50             1.15
4  COc1cc(COC(=O)c2ccc(-c3ccccc3)o2)cc(OC)c1OC  High affinity 3',5'-cyclic-AMP phosphodiesterase 7A (Homo sapiens)  log10 IC50             0.71
5  COc1cc(COC(=O)c2ccc(-c3ccc(Cl)cc3[N+](=O)[O-])o2)cc(OC)c1OC  High affinity 3',5'-cyclic-AMP phosphodiesterase 7A (Homo sapiens)  log10 IC50             0.86
6  COc1cc(CNC(=O)c2ccc(-c3ccc(C)cc3[N+](=O)[O-])o2)cc(OC)c1OC  High affinity 3',5'-cyclic-AMP phosphodiesterase 7A (Homo sapiens)  log10 IC50             0.51
7  COc1cc(COC(=O)c2ccc(-c3ccccc3C(F)(F)F)o2)cc(OC)c1OC  High affinity 3',5'-cyclic-AMP phosphodiesterase 7A (Homo sapiens)  log10 IC50             0.42
